Hey, just so you know, these numbers are from PubChem BioAssay (NCI).

- Test system: HOP-62 NSCLC
- Test protocol: NCI tumour cell line growth inhibition, 48 h
Answer not met if TGI is under 30 µM, and met if it is 30 µM or more.

Answered cases to consult:
CN(C)c1ccc(/C=N\N2C(=O)c3ccccc3C2=O)cc1	met
O=C(NO)C(=O)Nc1ccc(Cl)cc1[N+](=O)[O-]	met
COc1cc2cc(C(=O)N3CC(CCl)c4ccccc43)[nH]c2c(OC)c1OC (stereo unspecified)	met
NC(=O)NC(=O)c1cccc(NC(=O)CBr)c1	not met

Tell me whether TGI is at least 30 µM here: Cc1ccc(S(=O)(=O)Cc2nc(-c3ccc(C(=O)NCc4cccnc4)cc3)oc2C)cc1 met

====

- System: UO-31 renal
- Test protocol: NCI tumour cell line growth inhibition, 48 h; in the data active = GI50 below about 0.43 µM; inactive = the rest
Field 'call' accepts active, inactive

CCCCC#CC#Cc1cccc(=O)o1	inactive
C=C(C)[C@@H]1CC[C@]2(COC3CCCCO3)CC[C@]3(C)[C@H](CC[C@@H]4[C@@]5(C)C=C(C=O)C(=O)C(C)(C)[C@@H]5CC[C@]43C)[C@@H]12 (stereo not given in full)	inactive
O=C(OCc1ccc2c(Cl)cc(Cl)c(O)c2n1)c1cc2ccccc2[nH]1	active

Check the results log: what was the call for CN(C[C@@H]1COCCO1)S(=O)(=O)Nc1ccc2ccc3ncc(-c4cnn(C)c4)cc3c(=O)c2c1 ? inactive

Check the results log: what was the call for COc1ccc(-c2csc(-c3cc(Cl)cc(Cl)c3Cl)n2)cc1 ? inactive

====

- Tested on: M14 melanoma
- Test protocol: NCI tumour cell line growth inhibition, 48 h; in the data active = GI50 below about 0.43 µM; inactive = the rest
Field 'call' accepts active, inactive

Answered cases to consult:
O=C(CCCCCCSc1nc(-c2ccc(Cl)cc2)cc(-c2ccc(Cl)cc2)n1)NO	inactive
O=C([O-])c1ccc(C(=O)[O-])cc1.O=C([O-])c1ccc(C(=O)[O-])cc1.[Mo+2].[Mo+2]	inactive
CCOC(=O)Nc1ccc(-c2nc(-c3cccc(OC)c3)c(-c3ccnc(Br)c3)[nH]2)cc1	inactive
CCC[CH2][Sn]([CH2]CCC)([O]C(=O)C1CCC(=O)N1)[O]C(=O)C1CCC(=O)N1 (configuration not stated)	active
CS(=O)(=O)CCNCc1ccc(-c2ccc3ncnc(Nc4ccc(OCc5ccccc5)c(Cl)c4)c3c2)o1	inactive
C#Cc1cccc(Nc2nc3ccc([N+](=O)[O-])cc3nc2Nc2cccc(C#C)c2)c1	active

Query molecule follows.
Check the results log: what was the call for COc1ccc(-c2ccc(/C=N/n3c(C)nn(CN4CCN(C)CC4)c3=S)o2)c([N+](=O)[O-])c1 ? inactive

====

- System: MOLT-4 leukemia
- Test protocol: NCI tumour cell line growth inhibition, 48 h; in the data active = GI50 below about 0.43 µM; inactive = the rest
Field 'call' accepts 1 = active, -1 = inactive

Answered cases to consult:
COc1ccc2c(c1)[n+](=O)c(C(=O)/C=C/c1cc(OC)c(OC)c(OC)c1)c(C)n2[O-]	-1
Cc1cc(C)nc(SC2=C(Nc3cccc(Cl)c3C)C(=O)N(Cc3ccccc3)C2=O)n1	-1
Cc1nc2n(c(=O)c1CCN1CCC(c3noc4cc(F)ccc34)CC1)CCCC2	-1

Check the results log: what was the call for C=C1C(=O)O[C@H]2[C@H]1CC(=O)/C(C)=C/CC[C@@]1(C)O[C@@H]21 ? 1

Check the results log: what was the call for C=C1C(=O)O[C@H]2[C@H]1CC/C(COC(=O)c1ccc(C#N)cc1)=C\CC[C@@]1(C)O[C@@H]21 ? -1

Check the results log: what was the call for COc1cnc2c(c1)C(=O)c1c-2n(CCCN2CCCC2)c(=O)c2cc(F)ccc12 ? 1
